Measured values drawn from the supplement of paper PMC6757056 for this set.

B1: library; a variant is named by its letters at N, in order (parent)
chain: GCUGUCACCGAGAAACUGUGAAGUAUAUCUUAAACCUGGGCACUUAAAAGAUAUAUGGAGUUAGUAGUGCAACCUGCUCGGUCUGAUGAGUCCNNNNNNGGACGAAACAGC

Variants of: B1
Test: normalized RNA/DNA level with ligand (relative to sTRSVctl = 100) (log10 (% of sTRSVctl)); HEK293T; ligand: cyclic di-GMP (c-di-GMP-II aptamer); ligand concentration (+) RNA-Seq: 1 mM; higher = less ribozyme self-cleavage, higher mRNA level
Conditions: reporter: mCherry (pCS4076), ligand present: yes
MEASUREMENT_TYPE: normalized RNA/DNA level with ligand (log10)
// keep it numeric: no unit symbol after the value

For reference, reported normalized RNA/DNA level with ligand (log10) for CUUCGC stands at 1.83

For CAAGAG the variant record lists normalized RNA/DNA level with ligand (log10) as 1.78

normalized RNA/DNA level with ligand (log10) reported for this variant ACGUAC : 1.78

// field: normalized RNA/DNA level with ligand (log10); key: ACUGCA ; value = 1.77

// normalized RNA/DNA level with ligand (log10) lookup, variant = GGACCA , result: 1.81

Field normalized RNA/DNA level with ligand (log10) (entry UCAGAC ) reads 1.76

get_value(item= CACUAA , readout=normalized RNA/DNA level with ligand (log10)) returns 1.48

Item: UGAGCC | normalized RNA/DNA level with ligand (log10): 1.91

Recorded normalized RNA/DNA level with ligand (log10) (variant UUGUAC ): 1.85

variant AGCUGA , normalized RNA/DNA level with ligand (log10) observed: 1.72

Consider UAGGUA . Its measured normalized RNA/DNA level with ligand (log10) is 1.72

Looking up CAACCA , I found its normalized RNA/DNA level with ligand (log10) recorded as 1.71

# normalized RNA/DNA level with ligand (log10) (variant: GAAACG ) is 1.77

Measured normalized RNA/DNA level with ligand (log10) of UAGGAG : 1.76

Looking up UUCUUA , I found its normalized RNA/DNA level with ligand (log10) recorded as 1.87

According to the records, this variant UCGCCG displays normalized RNA/DNA level with ligand (log10) of 1.95

Measured normalized RNA/DNA level with ligand (log10) of UCUAGC : 1.88

Looking up GUGUCU , I see its normalized RNA/DNA level with ligand (log10) listed as 1.84

# variant CGUCCG ; its normalized RNA/DNA level with ligand (log10) = 1.89

The recorded normalized RNA/DNA level with ligand (log10) for entry AGAUCC equals 1.89

According to the records, this variant UCAGUA displays normalized RNA/DNA level with ligand (log10) of 1.59

The reported normalized RNA/DNA level with ligand (log10) of the variant UGGGUU was 1.82

Measured normalized RNA/DNA level with ligand (log10), UGUUAU : 1.84

normalized RNA/DNA level with ligand (log10) for GUUAGU is 1.8

Please fill in: normalized RNA/DNA level with ligand (log10) reported for CGUAUG = 1.86

For CGUAGA the variant record lists normalized RNA/DNA level with ligand (log10) as 1.64

Notebook: UAUGAG , normalized RNA/DNA level with ligand (log10) read as 1.82

The variant listed as AUUUGU shows normalized RNA/DNA level with ligand (log10) equal to 1.85

// recorded normalized RNA/DNA level with ligand (log10) for GAUGUA : 1.77

Consider GCUAGG . Its measured normalized RNA/DNA level with ligand (log10) is 1.7

UAUAUG yielded normalized RNA/DNA level with ligand (log10) of 1.84

So, ACGUGU ? Its normalized RNA/DNA level with ligand (log10) was 1.69

Value of normalized RNA/DNA level with ligand (log10) reported for the variant AAAUAG is 1.7

In plain terms, CGGUAA has a documented normalized RNA/DNA level with ligand (log10) of 1.28

# normalized RNA/DNA level with ligand (log10) (variant: GCUUGU ) is 1.75

GUUCUU has a reported normalized RNA/DNA level with ligand (log10) of 1.84

Given item UUUGGU , the value recorded as its normalized RNA/DNA level with ligand (log10) is 1.88

For AUCUAG the variant record lists normalized RNA/DNA level with ligand (log10) as 1.8
